Where do these numbers come from? They come from paper PMC6720094.

- assay.procedure: in vivo
- condition: Wistar, rat, in vivo, iv, Percentage recovery of unchanged oxyresveratrol in urine
measurement.name: dose excreted

molecule	endpoint.result
Oc1cc(O)cc(C=Cc2ccc(O)cc2O)c1 [Oxyresveratrol, 2,4,3′,5′–tetrahydroxystilbene]	5 to 10%

---

- assay.procedure: physchem
- condition: %Recovery (stability)

compound	recovery at 12 h, 400 ng/mL [%]
Oc1cc(O)cc(C=Cc2ccc(O)cc2O)c1 [Oxyresveratrol, 2,4,3′,5′–tetrahydroxystilbene]	68.2

---

- assay.procedure: Tissue distribution, tissue to plasma ratio (Kp) in rats
- Format: in vivo
- condition: male, Wistar, rat, in vivo, iv

molecule	Kp at 5 min
Oc1cc(O)cc(C=Cc2ccc(O)cc2O)c1 [Oxyresveratrol, 2,4,3′,5′–tetrahydroxystilbene]	10 to 100
